This section presents molecules with their documented % NRB released, Hydrolytic Stability values.
PROCEDURE_TEXT: Simulated gastric fluid (SGF) hydrolytic stability assay
Assay type: physicochemical
RECORDED_CONDITIONS: simulated gastric fluid without pepsin, pH 1.2, 37° C., 1 h, n = 3
Express it in %; write the number only.

>>> assay_value("O=C(CCCCCCCCC(=O)OCN1C(=O)C2C3C=C(C(O)(c4ccccc4)c4ccccn4)C(C3=C(c3ccccc3)c3ccccn3)C2C1=O)OCN1C(=O)C2C3C=C(C(O)(c4ccccc4)c4ccccn4)C(C3=C(c3ccccc3)c3ccccn3)C2C1=O (centres unmarked)")
0
>>> assay_value("O=C(CCC(=O)OCN1C(=O)C2C3C=C(C(O)(c4ccccc4)c4ccccn4)C(C3=C(c3ccccc3)c3ccccn3)C2C1=O)OCCOC(=O)CCC(=O)OCN1C(=O)C2C3C=C(C(O)(c4ccccc4)c4ccccn4)C(C3=C(c3ccccc3)c3ccccn3)C2C1=O (centres unmarked)")
0
>>> assay_value("O=C(CCCCCCC(=O)OCN1C(=O)C2C3C=C(C(O)(c4ccccc4)c4ccccn4)C(C3=C(c3ccccc3)c3ccccn3)C2C1=O)OCN1C(=O)C2C3C=C(C(O)(c4ccccc4)c4ccccn4)C(C3=C(c3ccccc3)c3ccccn3)C2C1=O (centres unmarked)")
0
>>> assay_value("O=C(CCC(=O)OCN1C(=O)C2C3C=C(C(O)(c4ccccc4)c4ccccn4)C(C3=C(c3ccccc3)c3ccccn3)C2C1=O)OCN1C(=O)C2C3C=C(C(O)(c4ccccc4)c4ccccn4)C(C3=C(c3ccccc3)c3ccccn3)C2C1=O (centres unmarked)")
0
>>> assay_value("O=C(CCCCCCCCCCC(=O)OCN1C(=O)C2C3C=C(C(O)(c4ccccc4)c4ccccn4)C(C3=C(c3ccccc3)c3ccccn3)C2C1=O)OCN1C(=O)C2C3C=C(C(O)(c4ccccc4)c4ccccn4)C(C3=C(c3ccccc3)c3ccccn3)C2C1=O (centres unmarked)")
0
>>> assay_value("O=C(OCN1C(=O)C2C3C=C(C(O)(c4ccccc4)c4ccccn4)C(C3=C(c3ccccc3)c3ccccn3)C2C1=O)c1ccc(C(=O)OCN2C(=O)C3C4C=C(C(O)(c5ccccc5)c5ccccn5)C(C4=C(c4ccccc4)c4ccccn4)C3C2=O)cc1 (centres unmarked)")
0

Q: Requested field: % NRB released, Hydrolytic Stability. Item: O=C(CCCCC(=O)OCN1C(=O)C2C3C=C(C(O)(c4ccccc4)c4ccccn4)C(C3=C(c3ccccc3)c3ccccn3)C2C1=O)OCN1C(=O)C2C3C=C(C(O)(c4ccccc4)c4ccccn4)C(C3=C(c3ccccc3)c3ccccn3)C2C1=O (centres unmarked)
Result: 0

Q: What about O=C(CCC(=O)OCCN1C(=O)C2C3C=C(C(O)(c4ccccc4)c4ccccn4)C(C3=C(c3ccccc3)c3ccccn3)C2C1=O)OCCOC(=O)CCC(=O)OCCN1C(=O)C2C3C=C(C(O)(c4ccccc4)c4ccccn4)C(C3=C(c3ccccc3)c3ccccn3)C2C1=O (centres unmarked) ?
Result: 0
